- TEST SUMMARY: Aqueous (kinetic) solubility assay in PBS pH 7.4
- Assay type: physicochemical
- CONDITION DETAILS: phosphate-buffered saline, 25 °C, pH 7.4, aqueous buffer, kinetic from dmso stock, PBS pH 7.4, 2% DMSO, two hours, assay range 2-200 μM, read-out: PBS solubility, pH 7.4, μM Mean
Listed next: entries and their corresponding solubility at 2 h.

| COMPOUND | solubility at 2 h |
| --- | --- |
| Nc1ccccc1NC(=O)c1ccc(C(=O)NCC2CCN2C2CCCC2)cn1 (stereo not drawn) | ≥ 200 µM |
| Nc1ccccc1NC(=O)c1ccc(C(=O)NCCN2CCC3(CCCCC3)CC2)cc1 | ≥ 200 µM |
| CC1CCCC(C)N1CCNC(=O)c1ccc(C(=O)Nc2ccccc2N)nc1 (stereo not drawn) | ≥ 200 µM |
